- assay_notes: yeast display, Sf9 membrane polyspecificity reagent, FACS + sequencing; frameworks hold sequencing errors

{"sequence_code": "QFQLLESGGGLVQAGGSLRRSCAASGFTFDYYAMGWSRQAPGKERELVAVNNWSGGDTYYADSVKGRFTISRDNAKNTVYLQMNSLKPEDTAVYYCARVERMRYVGKYYPIRDYWGQGNQVTVSS", "polyreactivity (PSR sort gate)": "high polyreactivity"}
{"sequence_code": "QVQLGESGGGLVQAGGSLRLSCAASGFTFPVYAMGWYRQAPGKERELVAAISTSAGSTYYADSVKGRFTISRDNAKNTVYLQMNSLKPEDTAVYYCAARRRAFGSTYNYWGQGTQVTVSS", "polyreactivity (PSR sort gate)": "high polyreactivity"}
{"sequence_code": "QVQLVESGGGLVQAGGSLRLSCAASGSTFSSLIMGCYRQAPGKERELVAAISRSGGRTYYADSVKGRFTISRDNAKNTVYLQMNSLKPEDTAVYYCAADYVSVDRIRYGYWGQGTQVTVSS", "polyreactivity (PSR sort gate)": "high polyreactivity"}
